experimental_target: Prostaglandin G/H synthase 1 (Canis lupus familiaris, UniProt Q8HZR1)
Sequence (Q8HZR1 whole entry): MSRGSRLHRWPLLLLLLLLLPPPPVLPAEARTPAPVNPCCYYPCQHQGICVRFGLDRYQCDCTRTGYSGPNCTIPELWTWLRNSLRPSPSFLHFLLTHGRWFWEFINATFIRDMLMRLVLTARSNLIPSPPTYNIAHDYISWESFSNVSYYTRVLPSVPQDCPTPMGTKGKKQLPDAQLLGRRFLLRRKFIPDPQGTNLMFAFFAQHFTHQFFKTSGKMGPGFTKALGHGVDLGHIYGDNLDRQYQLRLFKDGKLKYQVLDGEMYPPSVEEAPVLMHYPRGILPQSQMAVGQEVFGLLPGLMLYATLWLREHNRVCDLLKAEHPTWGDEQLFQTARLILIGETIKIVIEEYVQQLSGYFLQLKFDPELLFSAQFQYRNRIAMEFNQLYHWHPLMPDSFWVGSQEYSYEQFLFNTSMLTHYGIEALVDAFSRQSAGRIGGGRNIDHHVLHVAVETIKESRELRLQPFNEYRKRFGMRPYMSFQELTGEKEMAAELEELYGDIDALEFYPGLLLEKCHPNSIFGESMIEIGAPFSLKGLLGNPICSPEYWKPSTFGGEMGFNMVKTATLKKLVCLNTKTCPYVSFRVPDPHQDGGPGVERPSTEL
procedure_summary: Inhibition of COX1 in canine whole blood
Examples of molecules with documented IC50 follow.

# structure_string, result_unit, limit_qualifier, IC50
records = [
    ("CS(=O)(=O)c1ccc(-n2nc(C(F)F)cc2-c2ccc(-c3ccco3)cc2)nc1", "µM", "=", 12),
    ("CS(=O)(=O)c1ccc(-n2nc(C(F)(F)F)cc2-c2ccc(-c3ccco3)c(C(N)=O)c2)nc1", "µM", "=", 2),
    ("CS(=O)(=O)c1ccc(-n2nc(C(F)(F)F)cc2-c2ccc(-c3cscn3)c(Cl)c2)nc1", "µM", "=", 16),
    ("Cc1cc(-c2cc(C(F)(F)F)nn2-c2ccc(S(C)(=O)=O)cn2)ccc1-c1cocn1", "µM", "=", 12.7),
    ("CS(=O)(=O)c1ccc(-n2nc(C(F)(F)F)cc2-c2ccc(-c3cncs3)cc2)nc1", "µM", "=", 2.7),
    ("Cc1cc(-c2cc(C(F)(F)F)nn2-c2ccc(S(C)(=O)=O)cn2)ccc1-c1ccco1", "µM", "=", 3.4),
    ("CS(=O)(=O)c1ccc(-n2nc(C(F)(F)F)cc2-c2ccc(-c3ccco3)c(C#N)c2)nc1", "µM", "=", 2),
    ("CS(=O)(=O)c1ccc(-n2nc(C(F)(F)F)cc2-c2ccc(-c3nccs3)cc2)nc1", "µM", "=", 50),
    ("CS(=O)(=O)c1ccc(-n2nc(C(F)(F)F)cc2-c2ccc(-c3cscn3)cc2)nc1", "µM", ">", 50),
]

----------
procedure_summary: Half life in dog
Assay type: ADME, organism-based, Canis lupus familiaris
setup_conditions: in vivo

# structure_string, result_unit, half-life
rows = [
    ("CS(=O)(=O)c1ccc(-n2nc(C(F)(F)F)cc2-c2ccc(-c3ccco3)c(Cl)c2)nc1", "h", 16.4),
]

----------
experimental_target: Cyclooxygenase-2 (Canis lupus familiaris, UniProt Q8SPQ9)
Sequence (Q8SPQ9 whole entry): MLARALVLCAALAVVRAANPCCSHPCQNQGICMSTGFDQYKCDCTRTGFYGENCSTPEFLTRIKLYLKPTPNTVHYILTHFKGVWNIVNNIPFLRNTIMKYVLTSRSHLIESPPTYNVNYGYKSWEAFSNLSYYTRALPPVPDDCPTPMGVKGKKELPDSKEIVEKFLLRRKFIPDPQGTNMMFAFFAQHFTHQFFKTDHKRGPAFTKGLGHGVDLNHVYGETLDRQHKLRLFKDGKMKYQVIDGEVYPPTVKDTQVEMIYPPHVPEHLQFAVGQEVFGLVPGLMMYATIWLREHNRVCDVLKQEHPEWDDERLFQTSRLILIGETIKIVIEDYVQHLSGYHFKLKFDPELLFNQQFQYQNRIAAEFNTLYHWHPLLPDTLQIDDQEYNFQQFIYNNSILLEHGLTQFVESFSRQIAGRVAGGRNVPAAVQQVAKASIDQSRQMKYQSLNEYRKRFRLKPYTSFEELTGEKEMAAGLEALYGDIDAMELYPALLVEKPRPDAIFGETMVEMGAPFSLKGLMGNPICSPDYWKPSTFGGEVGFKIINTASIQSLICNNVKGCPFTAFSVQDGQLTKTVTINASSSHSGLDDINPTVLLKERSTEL
procedure_summary: Inhibition of COX2 in canine whole blood
pIC50: −log10 of the molar value.
Where pIC50 equals or exceeds 7, the correct label is yes; where it does not, the label is no.

# structure_string, label
rows = [
    ("CS(=O)(=O)c1ccc(-n2nc(C(F)(F)F)cc2-c2ccc(-c3ccco3)cc2)nc1", "yes"),
    ("CS(=O)(=O)c1ccc(-n2nc(C(F)(F)F)cc2-c2cccc(-c3cscn3)c2)nc1", "no"),
    ("CS(=O)(=O)c1ccc(-n2nc(C(F)F)cc2-c2ccc(-c3ccco3)c(F)c2)nc1", "yes"),
    ("CS(=O)(=O)c1ccc(-n2nc(C(F)F)cc2-c2ccc(-c3ccco3)c(Cl)c2)nc1", "yes"),
    ("CS(=O)(=O)c1ccc(-n2nc(C(F)(F)F)cc2-c2ccc(-c3ccco3)c(C(N)=O)c2)nc1", "no"),
    ("Cc1cc(-c2cc(C(F)(F)F)nn2-c2ccc(S(C)(=O)=O)cn2)ccc1-c1cocn1", "yes"),
    ("Cc1scnc1-c1ccc(-c2cc(C(F)(F)F)nn2-c2ccc(S(C)(=O)=O)cn2)cc1", "no"),
    ("CS(=O)(=O)c1ccc(-n2nc(C(F)(F)F)cc2-c2ccc(-c3cncs3)cc2)nc1", "no"),
    ("CS(=O)(=O)c1ccc(-n2nc(C(F)(F)F)cc2-c2ccc(-c3nccs3)cc2)nc1", "no"),
    ("CS(=O)(=O)c1ccc(-n2nc(C(F)(F)F)cc2-c2ccc(-c3ccco3)c(F)c2)nc1", "yes"),
]

----------
The compounds listed here are annotated with their pIC50.
experimental_target: UniProt:Q8SPQ9
procedure_summary: Inhibition of COX2 in canine whole blood
pIC50: −log10 of the molar value.

# structure_string, limit_qualifier, pIC50
measured = [
    ("Cc1cc(-c2cc(C(F)F)nn2-c2ccc(S(C)(=O)=O)cn2)ccc1-c1cscn1", "=", 7.72),
    ("COC(=O)c1cc(-c2cc(C(F)(F)F)nn2-c2ccc(S(C)(=O)=O)cn2)ccc1-c1ccco1", "<", 6.30),
    ("CS(=O)(=O)c1ccc(-n2nc(C(F)(F)F)cc2-c2ccc(-c3ccco3)c(C#N)c2)nc1", "=", 7.89),
    ("CS(=O)(=O)c1ccc(-n2nc(C(F)(F)F)cc2-c2ccc(-c3cscn3)c(Cl)c2)nc1", ">", 7.30),
    ("CS(=O)(=O)c1ccc(-n2nc(C(F)(F)F)cc2-c2ccc(-c3ccco3)c(Cl)c2)nc1", "=", 7.92),
    ("CS(=O)(=O)c1ccc(-n2nc(C(F)F)cc2-c2ccc(-c3ccco3)cc2)nc1", "=", 6.89),
    ("Cc1cc(-c2cc(C(F)(F)F)nn2-c2ccc(S(C)(=O)=O)cn2)ccc1-c1ccco1", "=", 8.00),
    ("Cc1cc(-c2cc(C(F)(F)F)nn2-c2ccc(S(C)(=O)=O)cn2)ccc1-c1cscn1", "=", 7.05),
    ("CS(=O)(=O)c1ccc(-n2nc(C(F)(F)F)cc2-c2ccc(-c3cscn3)cc2F)nc1", "=", 6.54),
]

----------
Each record here notes measured Ratio IC50.
Species on record: Canis lupus familiaris
procedure_summary: Selectivity for COX2 over COX1
endpoint_name: Ratio IC50

# structure_string, endpoint_name, limit_qualifier, reported_result
records = [
    ("CS(=O)(=O)c1ccc(-n2nc(C(F)F)cc2-c2ccc(-c3ccco3)cc2)nc1", "Ratio IC50", "=", 92),
    ("CS(=O)(=O)c1ccc(-n2nc(C(F)F)cc2-c2ccc(-c3ccco3)c(F)c2)nc1", "Ratio IC50", "=", 83),
    ("Cc1cc(-c2cc(C(F)(F)F)nn2-c2ccc(S(C)(=O)=O)cn2)ccc1-c1cscn1", "Ratio IC50", "=", 172),
    ("CS(=O)(=O)c1ccc(-n2nc(C(F)(F)F)cc2-c2ccc(-c3cscn3)cc2)nc1", "Ratio IC50", ">", 313),
    ("Cc1cc(-c2cc(C(F)(F)F)nn2-c2ccc(S(C)(=O)=O)cn2)ccc1-c1ncco1", "Ratio IC50", "=", 171),
    ("CS(=O)(=O)c1ccc(-n2nc(C(F)(F)F)cc2-c2ccc(-c3ccco3)c(C#N)c2)nc1", "Ratio IC50", "=", 154),
    ("CS(=O)(=O)c1ccc(-n2nc(C(F)(F)F)cc2-c2ccc(-c3nccs3)cc2)nc1", "Ratio IC50", "=", 238),
    ("CS(=O)(=O)c1ccc(-n2nc(C(F)(F)F)cc2-c2ccc(-c3nccs3)c(C#N)c2)nc1", "Ratio IC50", "=", 212),
    ("CS(=O)(=O)c1ccc(-n2nc(C(F)(F)F)cc2-c2ccc(-c3ccco3)c(F)c2)nc1", "Ratio IC50", "=", 558),
    ("CS(=O)(=O)c1ccc(-n2nc(C(F)(F)F)cc2-c2ccc(-c3ccco3)c(Cl)c2)nc1", "Ratio IC50", ">", 4170),
    ("CS(=O)(=O)c1ccc(-n2nc(C(F)(F)F)cc2-c2ccc(-c3ccco3)c(C(N)=O)c2)nc1", "Ratio IC50", "=", 4.9),
    ("CS(=O)(=O)c1ccc(-n2nc(C(F)(F)F)cc2-c2ccc(-c3ccco3)cc2)nc1", "Ratio IC50", "=", 759),
    ("CS(=O)(=O)c1ccc(-n2nc(C(F)F)cc2-c2ccc(-c3ccco3)c(Cl)c2)nc1", "Ratio IC50", "=", 550),
    ("Cc1cc(-c2cc(C(F)(F)F)nn2-c2ccc(S(C)(=O)=O)cn2)ccc1-c1ccco1", "Ratio IC50", "=", 340),
    ("CS(=O)(=O)c1ccc(-n2nc(C(F)(F)F)cc2-c2ccc(-c3cscn3)cc2F)nc1", "Ratio IC50", "=", 78),
    ("CS(=O)(=O)c1ccc(-n2nc(C(F)(F)F)cc2-c2ccc(-c3cncs3)cc2)nc1", "Ratio IC50", "=", 15),
    ("Cc1cc(-c2cc(C(F)F)nn2-c2ccc(S(C)(=O)=O)cn2)ccc1-c1cscn1", "Ratio IC50", "=", 200),
    ("Cc1cc(-c2cc(C(F)(F)F)nn2-c2ccc(S(C)(=O)=O)cn2)ccc1-c1cocn1", "Ratio IC50", "=", 487),
    ("CS(=O)(=O)c1ccc(-n2nc(C(F)(F)F)cc2-c2ccc(-c3cscn3)c(Cl)c2)nc1", "Ratio IC50", ">", 320),
]

Data origin: ChEMBL document CHEMBL1146113
